- Tested on: SF-268 CNS
- experiment: NCI tumour cell line growth inhibition, 48 h
Listed here: items and their measured GI50.
quantityName: GI50

Cc1cc(OCc2ccc(C(F)(F)F)cc2)c2c(c1)C(=O)C=C(NCCN1CCCC1)C2=O :: 1.97 µM
Nc1ccc(C#Cc2ccccc2C#CCCCCO)cc1 :: 19.9 µM
CC(C)(C)NCC(O)c1ccccc1Cl (stereo not given) :: > 100 µM
CC(=O)C1=C(C)N(Cc2ccccc2)C2(O)C=CC(=O)C3=C(O)c4ccccc4C(=O)C312 (stereo not given) :: 10.4 µM
COc1ccc2c3ccnc(C(F)(F)F)c3n(CCCCN)c2c1 :: 6.62 µM
COc1cc(OC)c(/C=C/C(=O)c2c(OC)cc(OC)cc2OC)c(OC)c1 :: 1.84 µM
C[C@@H]1CC[C@@H]2[C@@H]1[C@H](OC(=O)/C=C/C1CCCCC1)[C@]1(C3CCCCC3)C[C@@H](OC(=O)CO)[C@@]2(C)O1 :: 0.859 µM
COc1cc2c(cc1OCC(=O)Nc1ccc(Cl)cc1C(=O)c1ccccc1Cl)N=CC1CCCN1C2=O (stereo not given) :: 12.9 µM
CC1=CC(C)=N/C(=N/S(=O)(=O)c2cc(C)c(Cl)cc2SCc2ccccc2)NN1 :: 78.1 µM
O=C(Nc1ccc(Cl)c(Cl)c1)c1ccc(NC2=C(Cl)C(=O)N(Cc3ccccc3)C2=O)cc1 :: 8.26 µM

----------
- System: HT29 colon
- experiment: NCI tumour cell line growth inhibition, 48 h
quantityName: GI50

NS(=O)(=O)c1ccc(-n2nc3c(c2-c2cccs2)Cc2ccccc2-3)cc1 :: 22.9 µM
CC(C)(C)NCC(O)c1ccccc1Cl (centres undefined) :: > 100 µM
CC(=O)/C=C(/C)[O-].CC(=O)/C=C(/C)[O-].CC(=O)[CH-]C(C)=O.CC(=O)[CH-]C(C)=O.[Zr+4] :: > 100 µM
Cn1nc(C(F)(F)F)cc1-c1cc(Cl)c(OCc2ccc(Cl)cc2)c(-c2ccc(Cl)c(C(F)(F)F)c2)c1O :: 1.4 µM

----------
- Tested on: NCI/ADR-RES ovarian
- experiment: NCI tumour cell line growth inhibition, 48 h
TGI overview
quantityName: TGI

Clc1ccc2c(NC3CCC(N4CCCCC4)CC3)ccnc2c1 (stereo not given) :: > 100 µM
CC(NNC(=S)N1CCN(c2ccccn2)CC1)c1nccc2ccccc12 (stereo not given) :: 12 µM
COC1(OC)CC(CO)(COc2cc(Cl)nc(N)n2)C1 :: > 100 µM
CC1CN(c2cc3c(cc2F)c(=O)c(C(=O)O)cn3-c2ccc(N3CCN(C)CC3)cn2)CC(C)N1 (stereo not given) :: > 100 µM
CCn1c(CCCc2nc3c([nH]2)c(=O)n(C)c(=O)n3C)nc2c1c(=O)n(C)c(=O)n2C :: > 100 µM

----------
- Tested on: HOP-18 NSCLC
- experiment: NCI tumour cell line growth inhibition, 48 h
quantityName: TGI

N#CC1=C(O)NC(O)=C(C#N)C1c1c(Cl)cccc1Cl :: > 100 µM
O=C1CCC2(O)c3ccccc3C2Cc2ccccc21 (stereo not given) :: > 100 µM
COc1ccc(N=NC2=C(O)CCC2=O)cc1 :: > 100 µM
CCC(O)CCCCCCCCCCCCCCC(=O)O (stereo not given) :: > 100 µM
COc1cc2[nH]c3c(c2cc1OC)CCN[C@@]31CC[C@@]2(CC3c4c(cc(OC)c(O)c42)CCN3C)C[C@@H]1OC (stereo not given in full) :: > 81.7 µM

----------
- Tested on: MOLT-4 leukemia
- experiment: NCI tumour cell line growth inhibition, 48 h
quantityName: TGI (µM)

Cc1cc(I)cc(CN(C)CCCN2CCC(C)CC2)c1O :: 26.4
COc1cc(/C=C2\[C@@H]3NC(Cc4c(OC)c(C)c(OC)c(OC)c43)C(=O)N2Cc2ccccc2)c(OC)c(C)c1OC :: 94
CCN1CCN(C(=O)[C@]23CC[C@@H](C)[C@H](C)[C@@H]2C2=CC[C@@H]4[C@@]5(C)CCC(=O)C(C)(C)[C@@H]5CC[C@@]4(C)[C@]2(C)CC3)CC1 :: 1.99
CN1CCN(Cc2ccc(NC(=O)c3cncc(C#Cc4ccc(N)nc4)c3)cc2C(F)(F)F)CC1 :: 6.82
COC(=O)Nc1nc2ccc(C(=O)c3cccc(I)c3)cc2[nH]1 :: 10.6
O=[N+]([O-])c1ccc2c(c1)C(N1CCN(CCO)CC1)Cc1ccc(F)cc1S2 (configuration not stated) :: 9.21
CCN(CC)CCOc1nc2ccccc2c2c1-c1ccc(OC)cc1C2=O :: 0.924

----------
The compounds listed here are annotated with their log10 TGI.
- Test system: HCT-116 colon
- experiment: NCI tumour cell line growth inhibition, 48 h
quantityName: log10 TGI (log10 of the value in µM)

CC1(C)CCC2=C(O1)c1ccccc1C(=Nc1ccc([N+](=O)[O-])cc1)C2=O :: 1.30
C=C1C(=O)O[C@@H]2/C=C(/C)[C@@H](OC(C)=O)C[C@@H](O)/C(C)=C\[C@@H](OC(=O)[C@]3(C)O[C@@H]3C)[C@@H]12 :: 1.13
CC(NNC(=S)N1CCN(c2ccccn2)CC1)c1nccc2ccccc12 (stereo not given) :: 0.97
COC(=O)CC[C@@H](C)[C@H]1CC[C@H]2[C@@H]3CC[C@@H]4C[C@H](O)CC[C@]4(C)[C@H]3CC[C@]12C :: 1.50
Nc1nc(N)c2c(ccc3c2ccn3Cc2cccc([N+](=O)[O-])c2)n1 :: 0.26
COC(=O)C1=C(C)NC(C)=C(C(=O)OC)C1c1cccc(/[N+]([O-])=C/c2ccccc2)c1 :: 1.48
CC1(C)C2CC3C(C)(C2)C31c1cc(Cl)ccc1N (stereo not given) :: 1.24
C=CC(=O)N1C/C(=C\c2ccc(OC)cc2)C(=O)/C(=C/c2ccc(OC)cc2)C1 :: -0.16

----------
- Test system: T-47D breast
- experiment: NCI tumour cell line growth inhibition, 48 h
quantityName: TGI (µM)

Cn1nc(C(F)(F)F)cc1-c1cc(Cl)c(OCc2ccc(Cl)cc2)c(-c2ccc(Cl)c(C(F)(F)F)c2)c1O :: 2.96
COC(=O)C1=C(C)NC(C)=C(C(=O)OC)C1c1cccc(/[N+]([O-])=C/c2ccccc2)c1 :: 41.6
O=C(Nc1ccc(Cl)c(Cl)c1)c1ccc(NC2=C(Cl)C(=O)N(Cc3ccccc3)C2=O)cc1 :: 92
N#Cc1sc2c(c1OC(=O)c1ccco1)c(=O)n(-c1ccccc1)c(=S)n2-c1ccccc1 :: 77.5
CC1(C)C2CC3C(C)(C2)C31c1cc(Cl)ccc1N (centres undefined) :: 26.2
CC1=CC2(C)/C=C(C)/C=C\CC(O)/C=C3/C=CC(=C4C(=O)OC2(CC1C)C4=O)OC3 (centres undefined) :: 6.52
OC(c1cc(C(F)(F)F)nc2c(Cl)cc(Cl)cc12)C1CCCCN1 (centres undefined) :: 19

----------
- Tested on: DU-145 prostate
- experiment: NCI tumour cell line growth inhibition, 48 h; in the data active = GI50 below about 0.43 µM; inactive = the rest
Outcome codes: active, inactive

COc1ccc(C(=O)/C=C/c2ccc(OCc3cccc(C(F)(F)F)c3)c(OC)c2)cc1OC :: inactive
Cc1ccc2sc3c(NCCCN)nc4ccccc4c3c(=O)c2c1 :: inactive
CN(C(=O)C(C)(C)C)c1ccccc1I(=O)=O :: inactive
Clc1cnc(Nc2ccc(OCCN3CCCC3)cc2)nc1NCc1ccco1 :: inactive
COc1cc(OC)c(/C=C/C(=O)c2c(OC)cc(OC)cc2OC)c(OC)c1 :: inactive
Cc1cc(I)cc(CN(C)CCCN2CCC(C)CC2)c1O :: inactive
Nc1ccc(C#Cc2ccccc2C#CCCCCO)cc1 :: inactive
Cc1[nH]nc(C(F)(F)F)c1Cc1sc2c(c1C(=O)N1C[C@](C)(O)CO1)c(=O)n(C)c(=O)n2C(C)C :: inactive
C=CCc1c(O)c(C(=O)/C=C/c2ccc(Cl)cc2)c(OC)c2ccoc12 :: inactive
O=C1/C=C/[C@@H](O)[C@@H]2C[C@@H](O)C[C@H]2/C=C/CCC[C@H](CCO)O1 :: active

----------
- System: OVCAR-8 ovarian
- experiment: NCI tumour cell line growth inhibition, 48 h
quantityName: TGI (µM)

COc1cccc(N2CC(O)=C(c3nc4ccccc4s3)C2=N)c1 :: 65.9
NS(=O)(=O)c1ccc(-n2nc3c(c2-c2cccs2)Cc2ccccc2-3)cc1 :: 41.6

----------
- Test system: HT29 colon
- experiment: NCI tumour cell line growth inhibition, 48 h; in the data active = GI50 below about 0.43 µM; inactive = the rest
Classes used: active, inactive

C=CCc1c(O)c(C(=O)/C=C/c2ccc(Cl)cc2)c(OC)c2ccoc12 :: inactive
Cc1nnc(N/N=C/c2ccc([N+](=O)[O-])o2)[nH]c1=O :: inactive
CCN1CCN(c2ccc(NC(=O)Nc3nc4ccc(-c5ccccc5OC)cc4s3)cc2)CC1 :: inactive
Cc1cc(OCc2ccc(C(F)(F)F)cc2)c2c(c1)C(=O)C=C(NCCN1CCCC1)C2=O :: inactive
COc1cccc(N2CC(O)=C(c3nc4ccccc4s3)C2=N)c1 :: active
CC(C)[C@@H](C(=O)O[C@@H]1/C=C/C(=O)O[C@@H](C)CCC/C=C/[C@@H]2C[C@H](O)C[C@H]21)N(C)C :: inactive
COc1ccc2c3ccnc(C(F)(F)F)c3n(CCCCN)c2c1 :: inactive
CCC[CH2][Sn]1([CH2]CCC)[O]C(=O)c2cccc([N+](=O)[O-])c2C(=O)[O]1 :: inactive
CC1=CC2(C)/C=C(C)/C=C\CC(O)/C=C3/C=CC(=C4C(=O)OC2(CC1C)C4=O)OC3 (centres undefined) :: inactive
